Each entry below carries its recorded inhibition.
- tested.on: Protein phosphatase methylesterase 1 (Mus musculus) (UniProt Q8BVQ5)
- Sequence (Q8BVQ5 whole entry): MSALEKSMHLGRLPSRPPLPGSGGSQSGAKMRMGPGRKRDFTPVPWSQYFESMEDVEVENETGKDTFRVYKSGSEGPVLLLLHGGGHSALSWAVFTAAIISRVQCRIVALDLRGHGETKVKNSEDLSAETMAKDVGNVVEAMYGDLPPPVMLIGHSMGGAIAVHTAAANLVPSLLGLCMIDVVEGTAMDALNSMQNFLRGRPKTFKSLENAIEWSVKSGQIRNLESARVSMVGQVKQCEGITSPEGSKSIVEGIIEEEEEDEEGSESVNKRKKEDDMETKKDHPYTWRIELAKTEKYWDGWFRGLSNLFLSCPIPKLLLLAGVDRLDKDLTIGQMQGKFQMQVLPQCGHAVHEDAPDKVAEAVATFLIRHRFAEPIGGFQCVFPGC
- assay: Inhibition of PME1 binding to FP-rhodamine in mouse brain soluble proteome at 20 uM after 30 mins by […] activity-based protein profiling assay relative to control
- Assay type: tissue-based
Give the quantity in %, number only.

Consider the following illustrative entries.
>  <compound>
CS(=O)(=O)C(=Cc1cccn1S(=O)(=O)c1ccccc1)S(C)(=O)=O

>  <inhibition, %>
0

$$$$
>  <compound>
CS(=O)(=O)C(C#N)Cc1cccn1S(=O)(=O)c1ccccc1 (stereo not drawn)

>  <inhibition, %>
0

$$$$
>  <compound>
CS(=O)(=O)/C(=C/c1cccn1S(=O)(=O)c1ccccc1)CN

>  <inhibition, %>
0

$$$$
>  <compound>
CS(=O)(=O)/C(C#N)=C/c1ccc[nH]1

>  <inhibition, %>
0

$$$$
>  <compound>
CS(=O)(=O)/C(C#N)=C/c1cccn1S(=O)(=O)c1ccccc1

>  <inhibition, %>
90

$$$$
>  <compound>
CS(=O)(=O)/C(C#N)=C/c1ccc([N+](=O)[O-])cc1

>  <inhibition, %>
0

$$$$
>  <compound>
N#CC(C#N)=Cc1cccn1S(=O)(=O)c1ccccc1

>  <inhibition, %>
50

$$$$

Moving on to another compound below.
Enquiry: Identify the reported inhibition for the following entry. CS(=O)(=O)/C(C#N)=C/c1ccccc1
Return: 0

----------
- tested.on: Protein phosphatase methylesterase 1 (Homo sapiens)
- Sequence (Q9Y570 whole entry): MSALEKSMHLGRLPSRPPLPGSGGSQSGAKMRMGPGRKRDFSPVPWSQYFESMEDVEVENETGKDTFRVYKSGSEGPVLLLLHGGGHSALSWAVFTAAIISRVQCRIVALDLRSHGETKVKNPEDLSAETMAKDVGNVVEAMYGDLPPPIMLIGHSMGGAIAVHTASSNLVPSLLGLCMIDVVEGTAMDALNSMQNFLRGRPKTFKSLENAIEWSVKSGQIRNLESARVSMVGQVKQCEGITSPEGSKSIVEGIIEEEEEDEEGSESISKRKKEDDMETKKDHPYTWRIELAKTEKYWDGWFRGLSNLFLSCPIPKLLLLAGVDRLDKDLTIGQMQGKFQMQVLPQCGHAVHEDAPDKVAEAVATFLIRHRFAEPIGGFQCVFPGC
- assay: Inhibition of PME1 binding to FP-rhodamine in human MDA-MB-231 cells after 45 mins by gel-based competitive activity-based protein profiling assay
metric.name: IC50 (µM)
Give the quantity in µM, number only.

Enquiry: Identify the reported IC50 for the following entry. CS(=O)(=O)/C(C#N)=C/c1cccn1S(=O)(=O)c1ccccc1
Return: 10.8
